assay-system: IDH1-R132H recombinant protein (Homo sapiens, UniProt O75874, R132H)
Sequence (O75874 whole entry R132H): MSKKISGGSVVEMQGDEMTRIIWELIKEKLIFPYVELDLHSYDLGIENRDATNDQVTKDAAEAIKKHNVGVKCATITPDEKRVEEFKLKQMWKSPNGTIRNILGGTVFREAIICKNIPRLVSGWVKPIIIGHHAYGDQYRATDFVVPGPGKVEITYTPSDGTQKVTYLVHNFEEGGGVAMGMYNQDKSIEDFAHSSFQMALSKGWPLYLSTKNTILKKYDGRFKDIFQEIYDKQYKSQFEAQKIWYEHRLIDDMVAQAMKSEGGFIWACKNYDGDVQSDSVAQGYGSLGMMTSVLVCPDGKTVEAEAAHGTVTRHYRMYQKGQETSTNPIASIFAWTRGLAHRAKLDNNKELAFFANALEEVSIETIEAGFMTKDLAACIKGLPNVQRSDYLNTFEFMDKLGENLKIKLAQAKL
experimental-details: IDH1-R132H enzymatic assay (NADPH consumption, diaphorase/resazurin readout)
Format: biochemical
conditions: read-out: Enzyme IDH1 R132H IC50 Range
pIC50: −log10 of the molar value.
# pIC50 values compiled below

query: Entry N#Cc1ccc(NCc2cc3cc(Cl)ccc3[nH]c2=O)cc1OC(F)(F)F : reported pIC50 = ?
result: 6.00 to 7.00

query: Entry Cc1cc2cc(CNc3ccc(-n4cnnn4)cc3)c(=O)[nH]c2cc1C : reported pIC50 = ?
result: < 6.00

query: Entry COc1cc(NCc2cc3cc(Cl)cc(OC)c3[nH]c2=O)ccc1C#N : reported pIC50 = ?
result: 6.00 to 7.00

query: Entry Cc1cc(NCc2cc3cc(Cl)ccc3[nH]c2=O)ccc1C#N : reported pIC50 = ?
result: 6.00 to 7.00

query: Entry CNC(=O)c1ccc(NCc2cc3cc(Cl)ccc3[nH]c2=O)cc1 : reported pIC50 = ?
result: < 6.00

query: Entry COc1ccc2[nH]c(=O)c(CNc3ccc(C#N)c(OC)c3)cc2c1 : reported pIC50 = ?
result: 6.00 to 7.00

query: Entry COc1cc(NCc2cc3cc(C(C)(C)C)ccc3[nH]c2=O)ccc1C#N : reported pIC50 = ?
result: 7.00 to 8.00

====

assay-system: IDH1-R132C recombinant protein (Homo sapiens, UniProt O75874, R132C)
Sequence (O75874 whole entry R132C): as the sequence (O75874 whole entry R132H) above, with H132C counted along it
experimental-details: IDH1-R132C enzymatic assay (NADPH consumption, diaphorase/resazurin readout)
conditions: read-out: Enzyme IDH1 R132C IC50 Range
pIC50: −log10 of the molar value.
readout-name: pIC50

// below: answered compounds
{"columns": ["compound", "pIC50"],
 "data": [
  ["COc1cc(N[C@@H](C)c2cc3cc(Cl)ccc3[nH]c2=O)ccc1C#N", "6.00 to 7.00"],
  ["COc1cc(NCc2cc3cc(Cl)cc(OCCN4CCOCC4)c3[nH]c2=O)ccc1C#N", "< 6.00"],
  ["COc1cc(NCc2cc3cc(Cl)c(OCCN4CCCC4)cc3[nH]c2=O)ccc1C#N", "< 6.00"]
]}

query: Entry COc1cc(NC(C)c2cc3cc(Cl)ccc3[nH]c2=O)ccc1C#N (racemic) : reported pIC50 = ?
result: 7.00 to 8.00

query: Entry COc1cc(NCc2cc3cc(Cl)c(OCc4cc(C)n(C)n4)cc3[nH]c2=O)ccc1C#N : reported pIC50 = ?
result: 6.00 to 7.00

query: Entry COc1cc(NCc2cc3cc(Cl)c(OCC4CCS(=O)(=O)CC4)cc3[nH]c2=O)ccc1C#N : reported pIC50 = ?
result: < 6.00

query: Entry COc1cc(NCc2cc3cc(Cl)c(OCc4cccnc4)cc3[nH]c2=O)ccc1C#N : reported pIC50 = ?
result: < 6.00

query: Entry COc1cc(NCc2cc3cc(Cl)c(OCc4cnccn4)cc3[nH]c2=O)ccc1C#N : reported pIC50 = ?
result: < 6.00

query: Entry COc1cc(NCc2cc3cc(Cl)c(OCCCN4CCCCC4)cc3[nH]c2=O)ccc1C#N : reported pIC50 = ?
result: < 6.00

query: Entry COc1cc(NCc2cc3cc(Cl)c(OCCn4ccnc4)cc3[nH]c2=O)ccc1C#N : reported pIC50 = ?
result: < 6.00

query: Entry COc1cc(NCc2cc3cc(Cl)c(OC4CCN(C)CC4)cc3[nH]c2=O)ccc1C#N : reported pIC50 = ?
result: < 6.00

query: Entry COc1cc(NCc2cc3cc(Cl)c(OCC(O)CN4CCOCC4)cc3[nH]c2=O)ccc1C#N (stereo not drawn) : reported pIC50 = ?
result: < 6.00

query: Entry COc1cc(NCc2cc3cc(Cl)c(OCCN4CCS(=O)(=O)CC4)cc3[nH]c2=O)ccc1C#N : reported pIC50 = ?
result: < 6.00

query: Entry COc1cc(NCc2cc3cc(Cl)c(OCC(N)=O)cc3[nH]c2=O)ccc1C#N : reported pIC50 = ?
result: 6.00 to 7.00

query: Entry COc1cc(NCc2cc3cc(Cl)c(OCc4ccccn4)cc3[nH]c2=O)ccc1C#N : reported pIC50 = ?
result: 6.00 to 7.00

query: Entry Cc1cc(NCc2cc3cc(Cl)ccc3[nH]c2=O)ccc1C#N : reported pIC50 = ?
result: < 6.00

query: Entry Cc1nnnn1-c1ccc(NCc2cc3cc(Cl)ccc3[nH]c2=O)cc1 : reported pIC50 = ?
result: < 6.00

query: Entry COc1cc(NCc2cc3cc(Cl)c(OC[C@@H]4CCCN4C)cc3[nH]c2=O)ccc1C#N : reported pIC50 = ?
result: < 6.00

query: Entry COc1cc(NCc2cc3cc(Cl)c(OCC(=O)N4CCOCC4)cc3[nH]c2=O)ccc1C#N : reported pIC50 = ?
result: < 6.00
